Hello, the source for this data is patent US20190315873A1, in case you need it.

Molecular target: rat MET ECD (rat) (UniProt P97523)
Sequence (P97523 25-931 limits assumed, form in doubt): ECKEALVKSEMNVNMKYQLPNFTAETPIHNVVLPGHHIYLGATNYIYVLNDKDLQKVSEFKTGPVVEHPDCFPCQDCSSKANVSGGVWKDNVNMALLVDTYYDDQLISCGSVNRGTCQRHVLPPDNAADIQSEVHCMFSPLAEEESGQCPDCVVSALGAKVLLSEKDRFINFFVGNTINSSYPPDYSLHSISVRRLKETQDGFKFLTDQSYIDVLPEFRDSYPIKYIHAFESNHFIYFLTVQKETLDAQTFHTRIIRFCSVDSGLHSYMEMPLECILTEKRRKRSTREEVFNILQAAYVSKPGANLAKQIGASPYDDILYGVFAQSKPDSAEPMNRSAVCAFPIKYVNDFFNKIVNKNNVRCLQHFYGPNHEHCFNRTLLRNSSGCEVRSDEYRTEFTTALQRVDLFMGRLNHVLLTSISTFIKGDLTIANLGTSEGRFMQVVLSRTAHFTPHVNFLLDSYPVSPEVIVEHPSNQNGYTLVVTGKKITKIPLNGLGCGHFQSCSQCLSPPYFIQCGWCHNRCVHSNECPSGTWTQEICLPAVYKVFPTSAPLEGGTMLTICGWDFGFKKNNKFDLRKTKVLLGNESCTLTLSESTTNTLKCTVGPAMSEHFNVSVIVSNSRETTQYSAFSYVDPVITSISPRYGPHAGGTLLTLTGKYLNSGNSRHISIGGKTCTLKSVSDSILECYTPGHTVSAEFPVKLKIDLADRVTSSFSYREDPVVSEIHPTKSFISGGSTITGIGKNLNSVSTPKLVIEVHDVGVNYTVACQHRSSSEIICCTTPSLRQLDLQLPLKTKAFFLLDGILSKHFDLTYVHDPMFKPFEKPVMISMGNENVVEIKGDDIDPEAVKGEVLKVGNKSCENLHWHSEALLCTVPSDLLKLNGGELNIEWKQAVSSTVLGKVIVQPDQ
Assay: ELISA: MET ECD immobilized (100 ng/well), mAb in human IgG1/lambda format in solution (0-40 nM), HRP anti-human Fc
Listing: EC50 (read off the curve) of selected binders
Numbers only here, please. The scale is nM.

71C3 llama-human chimeric mAb (human IgG1/lambda) (antibody, V domains shown) VH: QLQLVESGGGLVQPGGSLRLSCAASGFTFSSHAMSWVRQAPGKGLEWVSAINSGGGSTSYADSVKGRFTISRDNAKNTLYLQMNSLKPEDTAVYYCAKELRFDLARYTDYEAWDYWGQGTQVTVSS VL: SYELTQPSALSVTLGQTAKITCQGGSLGSSYAHWYQQKPGQAPVLVIYDDDSRPSGIPERFSGSSSGGTATLTISGAQAEDEGDYYCQSADSSGNAAVFGGGTHLTVLQ    0.3

Read off the recorded EC50 (read off the curve) for 71A3 llama-human chimeric mAb (human IgG1/lambda) (antibody, V domains shown) VH: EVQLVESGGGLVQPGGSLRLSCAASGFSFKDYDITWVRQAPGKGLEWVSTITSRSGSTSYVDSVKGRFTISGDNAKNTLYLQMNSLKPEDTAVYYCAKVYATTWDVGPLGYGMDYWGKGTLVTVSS VL: SYELTQPSALSVTLGQTAKITCQGGSLGSSYAHWYQQKPGQAPVLVIYDDDSRPSGIPERFSGSSSGGTATLTISGAQAEDEGDYYCQSADSSGNAAVFGGGTHLTVLQ
0.1

Read off the recorded EC50 (read off the curve) for 71D4 llama-human chimeric mAb (human IgG1/lambda) (antibody, V domains shown) VH: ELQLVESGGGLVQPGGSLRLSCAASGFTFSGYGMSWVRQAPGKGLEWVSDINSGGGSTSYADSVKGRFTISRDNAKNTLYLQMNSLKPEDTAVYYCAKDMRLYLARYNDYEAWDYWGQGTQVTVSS VL: SSALTQPSALSVTLGQTAKITCQGGSLGSSYAHWYQQKPGQAPVLVIYDDDSRPSGIPERFSGSSSGGTATLTISGAQAEDEGDYYCQSADSSGNAAVFGGGTHLTVLQ
0.2

Read off the recorded EC50 (read off the curve) for 76H10 llama-human chimeric mAb (human IgG1/lambda) (antibody, V domains shown) VH: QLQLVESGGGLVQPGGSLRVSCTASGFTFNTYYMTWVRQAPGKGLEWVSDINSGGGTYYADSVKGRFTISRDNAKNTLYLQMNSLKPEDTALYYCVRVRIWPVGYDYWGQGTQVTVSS VL: QAVVTQEPSLSVSPGGTVTLTCGLSSGSVTTSNYPGWFQQTPGQAPRTLIYNTNNRHSGVPSRFSGSISGNKAALTITGAQPEDEADYYCSLYTGSYTTVFGGGTHLTVLQ
0.1
